These measurements were taken from PubChem BioAssay AID1996.

# measurement-context: buffer; pH 7.4; 200.0 µM
property-measured: solubility kinetic (µg/mL)
Kindly provide the numeric value in µg/mL only, without the unit symbol.

Enquiry: Give a short answer stating reported solubility kinetic for CCOc1ccc(C)cc1S(=O)(=O)n1cnc2ccccc21 .
Return: 1

Enquiry: Give a short answer stating reported solubility kinetic for O=C(Nc1cccc(C(F)(F)F)c1)Nc1ccon1 .
Return: 9.9

Enquiry: Give a short answer stating reported solubility kinetic for Cc1ccc(C(=O)/C=C/c2ccccc2[N+](=O)[O-])cc1 .
Return: 6.8

Enquiry: Give a short answer stating reported solubility kinetic for CCOc1ccccc1OC(=O)CN1C(=O)c2ccccc2C1=O .
Return: 16.2

Enquiry: Give a short answer stating reported solubility kinetic for Cc1cnc(NC(=O)CC(C)c2ccccc2)s1 (stereo unspecified) .
Return: 3

----------
Answer each item with its documented solubility kinetic.
# measurement-context: buffer; pH 7.4; 200.0 µM

Enquiry: Give a short answer stating reported solubility kinetic for Cc1cc(=O)n2c3ccccc3n(C)c2n1 .
Return: > 32 µg/mL

Enquiry: Give a short answer stating reported solubility kinetic for CN(Cc1nc2ccccc2c(=O)[nH]1)C(=O)C1CC(=O)N(c2cccc3ccccc23)C1 (stereo unspecified) .
Return: > 64 µg/mL

Enquiry: Give a short answer stating reported solubility kinetic for Cc1cc(=O)n2c3ccccc3n(CC(O)CN3CCOCC3)c2c1C#N (stereo unspecified) .
Return: > 55 µg/mL

Enquiry: Give a short answer stating reported solubility kinetic for CC(=O)N(Cc1cc(=O)[nH]c2ccccc12)c1ccc(C)cc1C .
Return: > 48.1 µg/mL

Enquiry: Give a short answer stating reported solubility kinetic for O=C(O)C1CSC(c2ccc(O)c([N+](=O)[O-])c2)N1 (stereo unspecified) .
Return: > 40.5 µg/mL

Enquiry: Give a short answer stating reported solubility kinetic for CC(=O)Nc1c(C)nn(-c2ccc([N+](=O)[O-])cc2)c1C .
Return: > 41.1 µg/mL

Enquiry: Give a short answer stating reported solubility kinetic for Cc1cc(=O)[nH]c(-c2ccc(Cl)cc2)n1 .
Return: > 33.1 µg/mL

Enquiry: Give a short answer stating reported solubility kinetic for CC(=O)OCC(=O)Nc1c(C)cccc1C .
Return: > 33.2 µg/mL

Enquiry: Give a short answer stating reported solubility kinetic for CC(Sc1nnc(-c2ccco2)n1C)C(=O)NC1CCCC1 (stereo unspecified) .
Return: > 48.1 µg/mL

Enquiry: Give a short answer stating reported solubility kinetic for CC(C)c1ccc(C(=O)OCC(=O)c2c(N)n(C)c(=O)n(C)c2=O)cc1 .
Return: 4.4 µg/mL

Enquiry: Give a short answer stating reported solubility kinetic for CCOC(=O)/C=C1\SCC(=O)N1CC(=O)Nc1cccc(F)c1 .
Return: 17.1 µg/mL

----------
# measurement-context: buffer; pH 7.4; 200.0 µM
I'd appreciate it if you could label each record using solubility kinetic and these ranges: bin 1: < 5 µg/mL; bin 2: ≥ 5 µg/mL and < 30 µg/mL; bin 3: ≥ 30 µg/mL

Enquiry: # bin lookup: classify O=C(NCCN1CCCCC1)Nc1cccc(F)c1 by its solubility kinetic
Return: bin 3

Enquiry: # bin lookup: classify Cc1cc(C)c(C(=O)/C=C/c2cccs2)c(=O)[nH]1 by its solubility kinetic
Return: bin 3

Enquiry: # bin lookup: classify O=C(O)C1CC=C(Cl)CC1C(=O)NC1CCCCC1 (stereo not given) by its solubility kinetic
Return: bin 3

Enquiry: # bin lookup: classify CSCC(=O)N1CCC(CCC(=O)NC2CC2)CC1 by its solubility kinetic
Return: bin 3

Enquiry: # bin lookup: classify Cc1ccc2c(c1)N(CC(=O)Nc1ccccc1F)C(=O)CO2 by its solubility kinetic
Return: bin 1

Enquiry: # bin lookup: classify CN(c1ccccc1)c1cc(Br)nc(Br)c1 by its solubility kinetic
Return: bin 1

Enquiry: # bin lookup: classify Cc1nc2sc(C(N)=O)c(N)c2c(C)c1CC(=O)c1ccccc1 by its solubility kinetic
Return: bin 1

Enquiry: # bin lookup: classify CC1CCCN(C(=O)COc2ccc(Nc3ccccc3)cc2)C1 (stereo not given) by its solubility kinetic
Return: bin 2

Enquiry: # bin lookup: classify N/C(=N\c1nc2ccccc2o1)NC(=O)/C=C/c1ccccc1 by its solubility kinetic
Return: bin 1

Enquiry: # bin lookup: classify CN1C(=O)c2ccc(C(=O)Nc3ccccc3O)cc2C1=O by its solubility kinetic
Return: bin 2

Enquiry: # bin lookup: classify O=C1c2cccc([N+](=O)[O-])c2C(=O)N1C1CCCCC1 by its solubility kinetic
Return: bin 2

Enquiry: # bin lookup: classify CC(C)c1ccc(N2C(=O)C(Cl)=C(N3CCOCC3)C2=O)cc1 by its solubility kinetic
Return: bin 2

Enquiry: # bin lookup: classify Cl.O=C(CN1CCCC1)NCc1ccccc1 by its solubility kinetic
Return: bin 3

Enquiry: # bin lookup: classify Cc1ccnc(SCC(=O)c2cc3ccccc3o2)n1 by its solubility kinetic
Return: bin 1

Enquiry: # bin lookup: classify Clc1ccccc1CN1CCN(c2cccc3[nH]ccc23)CC1 by its solubility kinetic
Return: bin 2

Enquiry: # bin lookup: classify CCCc1c(C)[nH]c2nc3ccccc3n2c1=O by its solubility kinetic
Return: bin 1

Enquiry: # bin lookup: classify CC(C)C(OC(=O)c1cccs1)C(=O)NCCc1ccccc1 (stereo not given) by its solubility kinetic
Return: bin 3

Enquiry: # bin lookup: classify Cc1cc(C)cc(NC(=O)CN2C(=O)NC(Cc3c[nH]c4ccccc34)C2=O)c1 (stereo not given) by its solubility kinetic
Return: bin 1

Enquiry: # bin lookup: classify O=C(C(=S)N1CCOCC1)c1c[nH]c2ccccc12 by its solubility kinetic
Return: bin 3

Enquiry: # bin lookup: classify O=C(NCc1ccc(F)cc1)c1cc2ccccc2o1 by its solubility kinetic
Return: bin 3

Enquiry: # bin lookup: classify O=C(Nc1ccccc1Cl)c1ccccc1 by its solubility kinetic
Return: bin 2

Enquiry: # bin lookup: classify COc1ccccc1CC(=O)NC1CCCCCC1 by its solubility kinetic
Return: bin 3

Enquiry: # bin lookup: classify O=C(OCN1C(=O)C(=O)c2ccccc21)c1ccc(Cl)cc1 by its solubility kinetic
Return: bin 3
